B1: PhoQ; a variant is named by its letters at X, in order, P23837 (parent)
chain: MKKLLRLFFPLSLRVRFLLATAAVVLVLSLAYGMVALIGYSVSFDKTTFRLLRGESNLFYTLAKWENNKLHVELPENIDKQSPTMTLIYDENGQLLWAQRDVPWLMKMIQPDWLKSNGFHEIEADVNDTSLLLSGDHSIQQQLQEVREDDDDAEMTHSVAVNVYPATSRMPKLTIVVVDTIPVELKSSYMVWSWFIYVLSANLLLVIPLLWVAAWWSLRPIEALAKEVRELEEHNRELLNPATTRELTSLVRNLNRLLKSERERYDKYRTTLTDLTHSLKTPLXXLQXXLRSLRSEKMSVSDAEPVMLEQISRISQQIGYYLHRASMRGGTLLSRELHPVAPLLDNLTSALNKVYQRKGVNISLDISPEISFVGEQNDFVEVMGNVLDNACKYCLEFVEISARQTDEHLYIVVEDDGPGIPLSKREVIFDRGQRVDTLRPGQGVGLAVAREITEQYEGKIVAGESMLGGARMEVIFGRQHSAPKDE

Variants of: B1
Assay: enrichment ratio after two sorts for PhoP signalling (ratio (wild type AVST 3.29)); higher = more functional
Conditions: with PhoP (E. coli)
Over roughly 140,000 sequences, “enrichment ratio after two sorts for PhoP signalling” has its median near 0; the highest 2% begin near 11. Many of the other results were omitted from the sample, so the highest values are more common in it than they were.
assay readout: enrichment ratio
Answer as a number with no unit attached.

Recorded enrichment ratio, per entry:
changes: ASVV
measurement: 14.5

changes: TCGF
measurement: 12.5

**Q:** Quick one: enrichment ratio for SEAH ?
**A:** 31.6

**Q:** Quick one: enrichment ratio for VGLV ?
**A:** 12.3

**Q:** Quick one: enrichment ratio for SQTC ?
**A:** 20.9

**Q:** Quick one: enrichment ratio for AQVE ?
**A:** 34.1

**Q:** Quick one: enrichment ratio for SEVE ?
**A:** 6.62

**Q:** Quick one: enrichment ratio for SIWD ?
**A:** 14

**Q:** Quick one: enrichment ratio for SQLE ?
**A:** 16.5

**Q:** Quick one: enrichment ratio for SSLE ?
**A:** 12

**Q:** Quick one: enrichment ratio for AIVI ?
**A:** 13

**Q:** Quick one: enrichment ratio for MVTH ?
**A:** 2.25

**Q:** Quick one: enrichment ratio for AQVA ?
**A:** 14.1

**Q:** Quick one: enrichment ratio for MEAH ?
**A:** 28.9

**Q:** Quick one: enrichment ratio for TVRL ?
**A:** 0.897

**Q:** Quick one: enrichment ratio for ASVL ?
**A:** 16.7

**Q:** Quick one: enrichment ratio for ASVT ?
**A:** 15.2

**Q:** Quick one: enrichment ratio for TCAK ?
**A:** 11.2

**Q:** Quick one: enrichment ratio for GVAH ?
**A:** 0.601

**Q:** Quick one: enrichment ratio for AQVI ?
**A:** 18.1

Attribution: a collection of fitness landscapes (doi:10.1126/science.1257360)
